The reported numbers originate from PubChem BioAssay (NCI).

- Tested on: SR leukemia
- procedure text: NCI-60 one-dose screen, 48 h (100 = growth as untreated, 0 = no growth, -100 = all killed)
- stated conditions: 10 µM unless noted
Compounds without any hit were thinned out: in the full panel of roughly 83,000, 20% have a hit.
// reported growth per item

[
  {
    "molecule smiles": "CN(C)CC/C=C1\\c2ccccc2Sc2ccc(Cl)cc21",
    "unit of measurement": "%",
    "growth": 62
  },
  {
    "molecule smiles": "O=C(O)c1cccc2oc(-c3ccccc3O)nc12",
    "unit of measurement": "%",
    "growth": 47.6
  },
  {
    "molecule smiles": "CCCCOc1nc2ccc(Cl)cc2cc1/C=C/C(=O)/C=C/c1ccc(Cl)cc1",
    "unit of measurement": "%",
    "growth": 20.3
  },
  {
    "molecule smiles": "COc1ccc2c(-c3ccc(F)cc3)c(C#N)c(=NC(C)=O)oc2c1",
    "unit of measurement": "%",
    "growth": 13.7
  },
  {
    "molecule smiles": "CCc1cccc(-c2ccccc2)c1",
    "unit of measurement": "%",
    "growth": 52.4
  }
]

###

- Test system: SN12C renal
- procedure text: NCI-60 one-dose screen, 48 h (100 = growth as untreated, 0 = no growth, -100 = all killed)
- stated conditions: 10 µM unless noted
About 83,000 compounds went through this panel and 20% of them were active in at least one assay; those are over-represented in the sample as a whole.
Classification field: yes = growth at or over 90%; no = growth under 90%.

[
  {
    "molecule smiles": "O=[N+]([O-])c1cccc(C(c2ccccc2)c2ccccc2)c1",
    "group label": "yes"
  },
  {
    "molecule smiles": "Nc1nc(Cl)c2c(C(F)(F)F)cn(CC3CCNCC3)c2n1",
    "group label": "no"
  },
  {
    "molecule smiles": "CN(C)CCCOc1c(Br)cc(/C=C/C(=O)N(C)CCc2cc(Br)c(OCCCN(C)C)c(Br)c2)cc1Br",
    "group label": "no"
  },
  {
    "molecule smiles": "Nc1n[nH]c2cccc(C#Cc3cccc(NC(=O)c4cccc(C(F)(F)F)c4)c3)c12",
    "group label": "no"
  },
  {
    "molecule smiles": "CCCCN(CCCC)c1ccc(C(=N)c2ccc(N(C)C)cc2)cc1",
    "group label": "no"
  },
  {
    "molecule smiles": "COc1ccc(-c2nn(-c3ccc(NC(=O)c4cc(Cl)cc(Cl)c4)cc3)cc2-c2ccncc2)cc1Cl",
    "group label": "no"
  },
  {
    "molecule smiles": "O=C(NC(=S)Nc1ccc(Cl)cc1)c1ccccc1",
    "group label": "yes"
  },
  {
    "molecule smiles": "COC(=O)CCCNS(=O)(=O)c1cc(C(=O)Nc2ccc(NC(=O)c3cc(S(=O)(=O)NCCCC(=O)OC)c(O)c(O)c3O)cc2)c(O)c(O)c1O",
    "group label": "no"
  },
  {
    "molecule smiles": "CCCCC(=O)Nc1nc2ccc(SCCC)cc2s1",
    "group label": "no"
  },
  {
    "molecule smiles": "COC(=O)c1oc2c(C(C)=O)c(OCCCN(C)C)ccc2c1C",
    "group label": "yes"
  },
  {
    "molecule smiles": "O=[N+]([O-])c1cccc(C2c3ccccc3Oc3ccccc32)c1",
    "group label": "yes"
  },
  {
    "molecule smiles": "OCc1cnccc1NC12CC3CC(CC(C3)C1)C2",
    "group label": "yes"
  }
]
